Each record here notes measured EC50.
target: human TLR7 (Homo sapiens (Human)); assay: HEK-Blue human TLR7 cells NF-κB SEAP reporter assay; conditions: stimulation for 20 hours
Sequence (Q9NYK1 27-1049): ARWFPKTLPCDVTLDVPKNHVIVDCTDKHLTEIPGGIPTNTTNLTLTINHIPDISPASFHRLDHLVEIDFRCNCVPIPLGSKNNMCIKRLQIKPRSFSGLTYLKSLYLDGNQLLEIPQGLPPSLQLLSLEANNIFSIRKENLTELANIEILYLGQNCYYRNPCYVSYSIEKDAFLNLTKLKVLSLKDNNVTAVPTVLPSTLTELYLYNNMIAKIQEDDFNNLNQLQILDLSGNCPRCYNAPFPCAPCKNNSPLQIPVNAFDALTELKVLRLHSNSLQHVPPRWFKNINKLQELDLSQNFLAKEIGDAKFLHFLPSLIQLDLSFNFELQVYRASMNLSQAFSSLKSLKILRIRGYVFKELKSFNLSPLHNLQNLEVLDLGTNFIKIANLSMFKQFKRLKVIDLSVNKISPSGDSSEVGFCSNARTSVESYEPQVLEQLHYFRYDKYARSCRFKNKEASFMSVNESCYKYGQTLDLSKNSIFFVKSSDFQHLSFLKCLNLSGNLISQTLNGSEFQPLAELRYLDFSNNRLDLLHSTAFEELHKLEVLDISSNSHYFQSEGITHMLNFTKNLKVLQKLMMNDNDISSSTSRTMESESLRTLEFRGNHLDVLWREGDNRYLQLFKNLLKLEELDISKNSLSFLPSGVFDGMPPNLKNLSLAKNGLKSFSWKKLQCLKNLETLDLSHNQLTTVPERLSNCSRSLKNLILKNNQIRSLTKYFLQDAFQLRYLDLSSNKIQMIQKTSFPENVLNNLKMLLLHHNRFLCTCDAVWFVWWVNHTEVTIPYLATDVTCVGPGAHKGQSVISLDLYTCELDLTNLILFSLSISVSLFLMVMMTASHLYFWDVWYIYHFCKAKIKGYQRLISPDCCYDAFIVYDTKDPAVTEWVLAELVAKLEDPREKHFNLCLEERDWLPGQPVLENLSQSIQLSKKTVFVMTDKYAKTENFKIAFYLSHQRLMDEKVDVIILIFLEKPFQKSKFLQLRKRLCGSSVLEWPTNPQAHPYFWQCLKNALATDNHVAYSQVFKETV
experimentalEndpoint: EC50 (µM)

molecule	experimentalEndpoint	displayUnit	qual	measuredNumber
CCCN(CCC)C(=O)C1=Cc2ccc(C(=O)N3CC4(CCN(c5ccccc5)C4)C3)cc2N=C(N)C1 [Example 7]	EC50	µM	>	100
CCCN(CCC)C(=O)C1=Cc2ccc(C(=O)N3CC4CCC(C3)N4c3ccccc3)cc2N=C(N)C1 [Example 15]	EC50	µM	=	16
CCCN(CCC)C(=O)C1=Cc2ccc(C(=O)N3CCN(c4ccccc4)CC3)cc2N=C(N)C1 [Example 6]	EC50	µM	=	9
C/C=C/COC1CN(C(=O)c2ccc3c(c2)N=C(N)CC(C(=O)N(CCC)CCC)=C3)C1 [Example 22]	EC50	µM	=	32
CCCN(CCC)C(=O)C1=Cc2ccc(C(=O)N3CCC(Nc4ccc(CN)cc4)C3)cc2N=C(N)C1 (centres unmarked) [Example 18]	EC50	µM	>	100
CCCN(CCC)C(=O)C1=Cc2ccc(C(=O)N3CCC(NCc4ccccc4)C3)cc2N=C(N)C1 (centres unmarked) [Example 19]	EC50	µM	=	6.6
CCCN(CCC)C(=O)C1=Cc2ccc(C(=O)N3CCC(CNc4ccccc4)C3)cc2N=C(N)C1 (centres unmarked) [Example 21]	EC50	µM	=	6.98
CCCN(CCC)C(=O)C1=Cc2ccc(C(=O)N3CC(CNc4ccccc4)C3)cc2N=C(N)C1 [Example 4]	EC50	µM	=	10
CCCN(CCC)C(=O)C1=Cc2ccc(C(=O)N3CC(Nc4ccccc4)C3)cc2N=C(N)C1 [Example 3]	EC50	µM	=	24
CCCN(CCC)C(=O)C1=Cc2ccc(C(=O)N3CCCC(Nc4ccccc4)C3)cc2N=C(N)C1 (centres unmarked) [Example 23]	EC50	µM	=	0.4
CCCN(CCC)C(=O)C1=Cc2ccc(C(=O)N3CCN(Cc4ccccc4)CC3)cc2N=C(N)C1 [Example 10]	EC50	µM	=	14
CCCN(CCC)C(=O)C1=Cc2ccc(C(=O)N3CC4CN(c5ccccc5)C4C3)cc2N=C(N)C1 (centres unmarked) [Example 16]	EC50	µM	=	12
CCCN(CCC)C(=O)C1=Cc2ccc(C(=O)N3CCCC(NCc4ccccc4)C3)cc2N=C(N)C1 (centres unmarked) [Example 24]	EC50	µM	=	3.1
CCCN(CCC)C(=O)C1=Cc2ccc(C(=O)N3CCCC3)cc2N=C(N)C1 [Example 8]	EC50	µM	=	21
CCCN(CCC)C(=O)C1=Cc2ccc(C(=O)N3CC(NCc4ccccc4)C3)cc2N=C(N)C1 [Example 17]	EC50	µM	=	17
CCCN(CCC)C(=O)C1=Cc2ccc(C(=O)N3CCC(Nc4ccccc4)CC3)cc2N=C(N)C1 [Example 2]	EC50	µM	=	7.9
CCCN(CC1CC1)C(=O)C1=Cc2ccc(C(=O)N3CCC(Nc4ccccc4)CC3)cc2N=C(N)C1 [Example 9]	EC50	µM	=	18

----------
biological target: human TLR8 (Homo sapiens (Human)); test: HEK-Blue human TLR8 cells NF-κB SEAP reporter assay; conditions: stimulation for 20 hours
Sequence (Q9NR97 27-1041): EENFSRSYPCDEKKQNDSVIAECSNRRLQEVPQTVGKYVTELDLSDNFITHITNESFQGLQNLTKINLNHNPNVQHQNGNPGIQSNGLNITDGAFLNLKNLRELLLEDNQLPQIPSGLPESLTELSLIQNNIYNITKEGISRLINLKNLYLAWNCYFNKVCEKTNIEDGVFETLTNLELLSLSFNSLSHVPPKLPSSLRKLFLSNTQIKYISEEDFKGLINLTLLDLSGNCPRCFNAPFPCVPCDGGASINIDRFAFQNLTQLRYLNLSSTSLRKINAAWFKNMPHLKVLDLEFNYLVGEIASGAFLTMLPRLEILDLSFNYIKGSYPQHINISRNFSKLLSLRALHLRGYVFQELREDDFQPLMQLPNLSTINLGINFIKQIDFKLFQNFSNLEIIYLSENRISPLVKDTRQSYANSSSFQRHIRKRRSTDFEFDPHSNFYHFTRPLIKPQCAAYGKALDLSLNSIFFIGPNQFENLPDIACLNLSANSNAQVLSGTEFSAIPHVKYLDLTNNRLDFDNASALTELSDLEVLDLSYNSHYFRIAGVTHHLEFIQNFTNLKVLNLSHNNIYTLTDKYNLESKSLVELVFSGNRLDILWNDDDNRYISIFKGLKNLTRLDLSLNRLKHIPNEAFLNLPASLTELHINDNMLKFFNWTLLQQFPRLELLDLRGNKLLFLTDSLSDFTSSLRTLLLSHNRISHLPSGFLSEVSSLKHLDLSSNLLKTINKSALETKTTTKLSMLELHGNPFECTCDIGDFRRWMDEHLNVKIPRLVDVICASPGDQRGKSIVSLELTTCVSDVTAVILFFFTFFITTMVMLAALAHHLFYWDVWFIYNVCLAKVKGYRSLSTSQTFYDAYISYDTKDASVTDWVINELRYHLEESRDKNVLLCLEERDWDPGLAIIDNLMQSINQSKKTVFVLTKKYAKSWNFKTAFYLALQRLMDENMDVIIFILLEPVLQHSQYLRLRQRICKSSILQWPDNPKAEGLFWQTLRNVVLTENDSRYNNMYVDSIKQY
experimentalEndpoint: EC50 (nM)

molecule	tgt	experimentalEndpoint	measuredNumber
CCCN(CCC)C(=O)C1=Cc2ccc(C(=O)N3CCC(Nc4ccc(CN)cc4)C3)cc2N=C(N)C1 (stereo not shown)	human TLR8 (Homo sapiens (Human))	EC50	31
CCCN(CCC)C(=O)C1=Cc2ccc(C(=O)N3CCC4(CC3)CN(c3ccccc3)C4)cc2N=C(N)C1	human TLR8 (Homo sapiens (Human))	EC50	7
CCCN(CCC)C(=O)C1=Cc2ccc(C(=O)N3CCCC(NCc4ccccc4)C3)cc2N=C(N)C1 (stereo not shown)	human TLR8 (Homo sapiens (Human))	EC50	14
CCCCOC1CN(C(=O)c2ccc3c(c2)N=C(N)CC(C(=O)N(CCC)CCC)=C3)C1	human TLR8 (Homo sapiens (Human))	EC50	8
CCCN(CCC)C(=O)C1=Cc2ccc(C(=O)N3CCC(Nc4ccccc4)CC3)cc2N=C(N)C1	human TLR8 (Homo sapiens (Human))	EC50	6
CCCN(CCC)C(=O)C1=Cc2ccc(C(=O)N3CCC(NCc4ccccc4)C3)cc2N=C(N)C1 (stereo not shown)	human TLR8 (Homo sapiens (Human))	EC50	14
CCCN(CCC)C(=O)C1=Cc2ccc(C(=O)N3CCC(Nc4ccccc4)C3)cc2N=C(N)C1 (stereo not shown)	human TLR8 (Homo sapiens (Human))	EC50	4
CCCN(CCC)C(=O)C1=Cc2ccc(C(=O)N3CC4(CCN(c5ccccc5)C4)C3)cc2N=C(N)C1	human TLR8 (Homo sapiens (Human))	EC50	10
CCCN(CCC)C(=O)C1=Cc2ccc(C(=O)N3CC4(CCN(c5ccccc5)CC4)C3)cc2N=C(N)C1	human TLR8 (Homo sapiens (Human))	EC50	9
CCCN(CCC)C(=O)C1=Cc2ccc(C(=O)N3CCCC3)cc2N=C(N)C1	human TLR8 (Homo sapiens (Human))	EC50	15
CCCN(CCC)C(=O)C1=Cc2ccc(C(=O)N3CC4CCC(C3)N4c3ccccc3)cc2N=C(N)C1	human TLR8 (Homo sapiens (Human))	EC50	10
CCCN(CCC)C(=O)C1=Cc2ccc(C(=O)N3CC4CN(c5ccccc5)C4C3)cc2N=C(N)C1 (stereo not shown)	human TLR8 (Homo sapiens (Human))	EC50	29
CCCN(CCC)C(=O)C1=Cc2ccc(C(=O)N3CC(Nc4ccccc4)C3)cc2N=C(N)C1	human TLR8 (Homo sapiens (Human))	EC50	5
CCCN(CCC)C(=O)C1=Cc2ccc(C(=O)N3CC(NCc4ccccc4)C3)cc2N=C(N)C1	human TLR8 (Homo sapiens (Human))	EC50	18
CCCN(CCC)C(=O)C1=Cc2ccc(C(=O)N3CC4(C3)CN(c3ccc(C)cc3)C4)cc2N=C(N)C1	human TLR8 (Homo sapiens (Human))	EC50	5
CCCN(CCC)C(=O)C1=Cc2ccc(C(=O)N3CCC(CNc4ccccc4)C3)cc2N=C(N)C1 (stereo not shown)	human TLR8 (Homo sapiens (Human))	EC50	9
